Ref: the supplement of paper PMC12042874

TEST: amyloid nucleation score (Sup35N fusion, yeast selection) (log enrichment); library NNK3; higher = more nucleation; inactive = no reads after selection;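 also: zero at mode of non-aggregating sequences after 7 days selection at 30°C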
METRIC: amyloid nucleation score

TNNRKRLYYWFERVTSE | inactive
NFCNLLFR | inactive
LWYFRFNFTAYNYFLWYDTS | inactive
HVTIYGPET | inactive
ACTRWS | inactive

[ask] Requested read-out: amyloid nucleation score. Entry: FWNSFHFVNNYWHVY
[reply] inactive

[ask] Any idea what amyloid nucleation score was measured for LVVLLFYFCYSHGYDEKVQW ?
[reply] 0.996

[ask] Consider the substance shown here: YYCSDLSRSMDRSLRSTWPF What is its recorded amyloid nucleation score?
[reply] inactive

[ask] Looking for the measured amyloid nucleation score of WWCMNRCEDAASINGIVARK , can you help?
[reply] inactive

[ask] Need amyloid nucleation score, item YSFRVTYEGPHAN
[reply] 0.873

====

TEST: amyloid nucleation score (Sup35N fusion, yeast selection) (log enrichment); library NNK2; higher = more nucleation; inactive = no reads after selection
Where amyloid nucleation score equals or exceeds 0.5, the correct label is MET; where it does not, the label is NOT MET.

[ask] Please indicate if the recorded amyloid nucleation score for RLKVVLRYLASGHWKLVA meets or exceeds 0.5.
[reply] MET

[ask] State whether the measured amyloid nucleation score reaches 0.5, counting equality as reaching it, for LECNDA
[reply] NOT MET

[ask] Reported amyloid nucleation score reaches at least 0.5 for KGRGCRFLMLYYRVYMFRGS ?
[reply] NOT MET

[ask] Has SHCGHRSATGVLSPLQTKGH a recorded amyloid nucleation score greater than or equal to 0.5?
[reply] NOT MET

[ask] hey, is amyloid nucleation score for this one >= 0.5? PIMCKGNLTDFTFYCFCKFD
[reply] MET

[ask] Is amyloid nucleation score for CIFPPYVWYGIVMVYASMYG at or above 0.5?
[reply] MET

[ask] For this substance, is measured amyloid nucleation score 0.5 or higher? FPWYCVGYVRSKRDRKVAWS
[reply] NOT MET

[ask] Is the recorded value of amyloid nucleation score equal to or greater than 0.5 for this substance? SARFIIIWNWALSPRPRRCE
[reply] MET

[ask] Could you please find out whether SSWPSMST has amyloid nucleation score that meets 0.5 or exceeds it?
[reply] NOT MET

[ask] Determine whether this substance has amyloid nucleation score no lower than 0.5: FLEFLDTMWW
[reply] NOT MET

[ask] Kindly determine if amyloid nucleation score recorded for SCNGCSSMRDIFIFHGLLHN is above or exactly 0.5.
[reply] MET

[ask] State whether the measured amyloid nucleation score reaches 0.5, counting equality as reaching it, for FGVRDDILDSWCCTVCFSGK
[reply] NOT MET

[ask] Is reported amyloid nucleation score greater than or equal to 0.5 here: CVYPGEMLWRI
[reply] NOT MET

[ask] Record GRVNLDRCSSWVGWFVGCLL ; criterion: amyloid nucleation score no lower than 0.5. Met?
[reply] NOT MET

[ask] Reported amyloid nucleation score reaches at least 0.5 for CNSRCEDWPWIERTPG ?
[reply] MET

[ask] Is it the case that ARVIFAVSVLEFRVGYSQGA has amyloid nucleation score reaching or exceeding 0.5?
[reply] MET

====

TEST: amyloid nucleation score (Sup35N fusion, yeast selection) (log enrichment); library NNK2; higher = more nucleation; inactive = no reads after selection
METRIC: amyloid nucleation score
# respond with the number and nothing more

[ask] Could you share which amyloid nucleation score value was measured for PRWGRTMGCFSFRDPCRVTG ?
[reply] -0.277

[ask] amyloid nucleation score lookup needed for VPRSQIVVGIMFP , thanks.
[reply] -1.06

[ask] I would be grateful if you could share the reported amyloid nucleation score for ASNMIV .
[reply] -0.563

[ask] Quick one: amyloid nucleation score for RHTYVHYAHKVYLESFLGCG ?
[reply] 6.33

[ask] Field request: amyloid nucleation score | item: ALLFYGKMY
[reply] 5.97

[ask] Entry under review: AGKSTHLFLRAVVLLCGNPR . Reported amyloid nucleation score?
[reply] 0.05

[ask] Param item = YNYLLLSMVPSSILSRSYVQ ; retrieve measured amyloid nucleation score.
[reply] -0.161

[ask] Please give the measured amyloid nucleation score for this substance: IAKFTVMDFYGMVVAYSNCR
[reply] 1.12

[ask] # lookup: amyloid nucleation score of TRDILGRGVDQFFIVSYRFN
[reply] -1.11

[ask] Please report the recorded amyloid nucleation score for RMLGALFGMHVNYRAVSELF .
[reply] 1.49

[ask] Recorded amyloid nucleation score of VVYLEIVTRGATGYLVCLPC , please.
[reply] -0.437

[ask] Consider the substance GLTLFVRSLALRNYVCDWSP and give its measured amyloid nucleation score.
[reply] 0.149

[ask] amyloid nucleation score for RMLCLTSG ?
[reply] -0.59

[ask] # query: amyloid nucleation score of entry EDIIIVQFVV
[reply] 0.424

[ask] Tell me the measured amyloid nucleation score of FGSIHGGRDEGPFLLGSSNV , please.
[reply] -0.675

====

TEST: amyloid nucleation score (Sup35N fusion, yeast selection) (log enrichment); library NNK3; higher = more nucleation; inactive = no reads after selection
METRIC: amyloid nucleation score

Past entries and their recorded results:
ALIHFGIEVKRYICWMQNLV | inactive
VFLPLPPCTC | inactive
FKSAFWLIM | inactive
TKGLDILDGVCVGCLRCQVD | inactive
VSFYSSCVWIDARSCDYCYF | 2.79
LQPCKNMSTLSQNPTLRCPF | inactive
VTGDWTGYMPLCLISVAFLS | 1.5
LVALVRECT | inactive
TVGCHSGPELMFQSWNSRSL | inactive
QVLFAYIYLSLVNVSQG | 1.03

[ask] Please look up its amyloid nucleation score: LGVLMLQSTRFAAWVSSLGR
[reply] inactive

[ask] What value of measured amyloid nucleation score is listed for LSIYYEFFLSETNFCYMLRC ?
[reply] 0.766

[ask] Returns the measured amyloid nucleation score for the input substance. Input: SVRGIKVNLWRKEDLYASTQ
[reply] inactive

[ask] Request the reported amyloid nucleation score associated with PTAKRM
[reply] inactive

====

TEST: amyloid nucleation score (Sup35N fusion, yeast selection) (log enrichment); library NNK1; higher = more nucleation; inactive = no reads after selection
METRIC: amyloid nucleation score

Solved cases below.
LFYNICFYA | 6.74
RDNFEMFSPAAKYALFASGT | inactive
CRDAILIEVGNYRHLVLGPV | 0.677
YKEFVLYILYRLGLMIRKA | inactive
SIYKSSEREVVY | inactive
YGTNKISVALWS | -0.054

[ask] # amyloid nucleation score lookup, item NLRYYQFRSRSPTAWGHTMF
[reply] -0.744

[ask] Sample IVWFCINDTASVVLKTLLSH — what was its amyloid nucleation score?
[reply] 1.36

[ask] For RYYRVLLKFVLLSLVCTRYA , what is its reported amyloid nucleation score?
[reply] 0.578

[ask] Report amyloid nucleation score for GFSIYRCHYFSGRMVTNVSM please.
[reply] -0.475

====

TEST: amyloid nucleation score (Sup35N fusion, yeast selection) (log enrichment); library NNK1; higher = more nucleation; inactive = no reads after selection
METRIC: amyloid nucleation score
Please give the numeric answer without any surrounding text.

[ask] Reported amyloid nucleation score for SLRCVPVVSMRVRSDSSLYK : what is it?
[reply] 0.529

[ask] Endpoint output: amyloid nucleation score of PGYQTSWWYMLKCKTSSLNY . Value?
[reply] 0.468

[ask] Entry under review: QKIDNSIGQFYRKI . Reported amyloid nucleation score?
[reply] -1.15

[ask] Could you share which amyloid nucleation score value was measured for RGEKLQEVMSVGYWIGFFNN ?
[reply] 0.907

[ask] Request the reported amyloid nucleation score associated with LMTLDYSTYQHRRATDVWDG
[reply] -0.65

[ask] // lookup amyloid nucleation score for VRYSGNMLSSTSVNGIFGHE
[reply] 0.067

[ask] Looking for the measured amyloid nucleation score of LGTIVVSSVGKLGIIMTRAE , can you help?
[reply] 1.3

[ask] Please give the measured amyloid nucleation score for this substance: SGGWTSLDGDMSCSSVTYLV
[reply] -0.703

[ask] # query: amyloid nucleation score of entry VLRKTFGCFETMV
[reply] 3.92

[ask] // query amyloid nucleation score value for entry FWPFHDDLDVVSAFCYIRIL
[reply] -0.707

[ask] Consider the substance FSFYLYGGSC and give its measured amyloid nucleation score.
[reply] -1.47

[ask] Query (substance): TCMWMILLFINR ; field requested: amyloid nucleation score
[reply] 0.608

[ask] What value of amyloid nucleation score has been reported for the following substance? SVWDERIPGGYSPIRVCPSW
[reply] -0.337

[ask] Tell me the measured amyloid nucleation score of TELGVSPIAKRRNSVLDHAL , please.
[reply] -0.449

[ask] Using the record for PGVSDPYLDECKVTFKI , report its amyloid nucleation score.
[reply] 0.715

[ask] Fill in: amyloid nucleation score of KMWIRCVIGVRMLYPFARCG is ___
[reply] -0.138

[ask] GET /values?readout=amyloid nucleation score&item= RLKYYNYERFRLVVLCRVHG
[reply] -0.053

[ask] I'd like to know its amyloid nucleation score. The substance in question is ITVSKKATWCRQRGMRGLRG
[reply] 1.65

[ask] amyloid nucleation score for MGMGNVYAIQFCPMILWD ?
[reply] 6.78

[ask] Give the measured amyloid nucleation score of CVRRLRVLCTFLLVTLLYCI .
[reply] 1.67

[ask] Fill in the blank: the reported amyloid nucleation score of YTVRLM is ____.
[reply] 0.125

[ask] Given the entry MTCDVSKMCVSLRVVTSNGG , report its measured amyloid nucleation score.
[reply] 1.27

[ask] Recorded amyloid nucleation score of YFSVYSRHRSIWTCGIVYSK , please.
[reply] 0.078

[ask] Reported amyloid nucleation score for TNFYAVFLLLGGSGF : what is it?
[reply] 7.17

[ask] Field request: amyloid nucleation score | item: CSVGASAIGNM
[reply] 0.717

[ask] Param item = SRFKTDYTG ; retrieve measured amyloid nucleation score.
[reply] -0.492

[ask] Param item = RVGAPFNLVRSCSGATLCEV ; retrieve measured amyloid nucleation score.
[reply] -0.023

[ask] Form field: reported amyloid nucleation score of TNSCNLELAVICMSSYWG
[reply] 4.71

[ask] Consider the substance shown here: YVSDFKADTATLSSDLCQLA What is its recorded amyloid nucleation score?
[reply] -0.183

[ask] Please give the measured amyloid nucleation score for this substance: VGYSPVVFSLNNICGSPFLM
[reply] 5.28

[ask] I am curious: what amyloid nucleation score value has been reported for HIIQNLV ?
[reply] 0.25

[ask] Any idea what its amyloid nucleation score is? The substance is VISHEPAVFPTSRS
[reply] 0.121
